- system: Sodium-dependent dopamine transporter (Homo sapiens)
- Sequence (Q01959 whole entry): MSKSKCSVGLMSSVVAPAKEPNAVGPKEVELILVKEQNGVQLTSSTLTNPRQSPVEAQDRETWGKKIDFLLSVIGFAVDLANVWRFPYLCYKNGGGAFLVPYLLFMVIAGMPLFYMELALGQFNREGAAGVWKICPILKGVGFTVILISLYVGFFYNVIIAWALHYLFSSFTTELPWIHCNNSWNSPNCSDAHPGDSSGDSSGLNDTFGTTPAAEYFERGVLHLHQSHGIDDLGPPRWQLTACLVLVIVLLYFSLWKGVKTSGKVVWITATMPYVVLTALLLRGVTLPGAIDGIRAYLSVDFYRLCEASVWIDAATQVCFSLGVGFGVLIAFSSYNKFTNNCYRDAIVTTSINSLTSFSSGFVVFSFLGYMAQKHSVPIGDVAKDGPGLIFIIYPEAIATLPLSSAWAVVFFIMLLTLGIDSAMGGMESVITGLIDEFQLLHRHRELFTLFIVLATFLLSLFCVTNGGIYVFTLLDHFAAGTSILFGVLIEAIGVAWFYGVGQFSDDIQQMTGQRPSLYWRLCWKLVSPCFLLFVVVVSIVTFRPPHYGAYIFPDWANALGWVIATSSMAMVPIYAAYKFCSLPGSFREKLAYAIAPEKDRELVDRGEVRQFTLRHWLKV
- experiment_summary: Displacement of [125I]-RTI-55 from Dopamine transporter expressed in HEK293 cells
- Assay type: cell-based
parameter: IC50 (nM)
The response must be a number in nM with no trailing unit.

{"molecule": "CCOC(=O)C(c1ccccc1)C1CCCCN1 (racemic)", "unit_abbrev": "nM", "IC50": 319}

// returns reported IC50 for input CCOC(=O)[C@@H](c1ccccc1)[C@@H]1CCCCN1 (stereo in doubt; (-)-2)
2700
